Below, each of the compounds is paired with its reported Ki value.
target: Carbonic anhydrase 1 (Homo sapiens, UniProt P00915)
Sequence (P00915 whole entry): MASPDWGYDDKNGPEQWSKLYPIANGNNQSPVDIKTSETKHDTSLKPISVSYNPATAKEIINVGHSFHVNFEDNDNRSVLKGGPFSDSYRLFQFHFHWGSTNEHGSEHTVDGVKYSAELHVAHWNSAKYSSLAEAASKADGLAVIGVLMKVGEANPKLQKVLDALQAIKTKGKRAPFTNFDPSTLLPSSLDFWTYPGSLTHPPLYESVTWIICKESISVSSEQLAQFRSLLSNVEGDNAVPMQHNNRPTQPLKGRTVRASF
Write down the numeric answer in µM and omit the unit.

Examples with their reported Ki follow.
C/C(=N\NC(N)=O)c1nnn(-c2ccc(S(N)(=O)=O)cc2)c1C | 0.213
C/C(=N\NC(N)=O)c1nnn(-c2ccc(S(=O)(=O)Nc3nccs3)cc2)c1C | 46.3

## Task Given the compound Cc1c(-c2nn(-c3ccccc3)cc2/C=N/O)nnn1-c1ccc(C(=O)O)cc1 , what is its reported Ki?
## Result 4.63

* * *

Below, each of the compounds is paired with its reported pKi value.
target: Carbonic anhydrase 2 (Homo sapiens)
FYI, pKi means -log10 of a concentration in mol per litre.

CC(=O)c1nnn(-c2ccc(S(N)(=O)=O)cc2)c1C | 8.10
Cc1c(-c2nn(-c3ccccc3)cc2/C=N/O)nnn1-c1ccc(C(=O)O)cc1 | 6.62

## Task Write down the reported pKi of C/C(=N\Nc1nc(-c2ccc(Cl)cc2)cs1)c1nnn(-c2ccc(S(N)(=O)=O)cc2)c1C , test system: Carbonic anhydrase 2 (Homo sapiens).
## Result 7.85

## Task Write down the reported pKi of Cc1c(-c2nn(-c3ccccc3)cc2/C=N/O)nnn1-c1ccc(S(N)(=O)=O)cc1 , test system: Carbonic anhydrase 2 (Homo sapiens).
## Result 5.11
